Biological target: D(3) dopamine receptor (Homo sapiens, UniProt P35462)
Sequence (P35462 whole entry): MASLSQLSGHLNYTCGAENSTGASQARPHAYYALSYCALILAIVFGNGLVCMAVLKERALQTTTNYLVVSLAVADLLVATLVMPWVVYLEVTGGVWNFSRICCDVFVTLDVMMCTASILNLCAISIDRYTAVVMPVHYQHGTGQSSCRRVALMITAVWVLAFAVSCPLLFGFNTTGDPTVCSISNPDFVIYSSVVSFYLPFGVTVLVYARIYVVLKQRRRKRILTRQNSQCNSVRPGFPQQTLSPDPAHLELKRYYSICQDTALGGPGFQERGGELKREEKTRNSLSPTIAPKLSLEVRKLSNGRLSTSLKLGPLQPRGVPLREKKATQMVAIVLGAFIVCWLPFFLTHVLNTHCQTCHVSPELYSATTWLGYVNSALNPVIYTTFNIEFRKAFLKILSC
Assay: Antagonist activity at human D3 receptor expressed in CHO cells co-expressing G0 by [35S]GTPgammaS binding assay
EXPERIMENTAL ENDPOINT: Ki

>  <TEST SMILES>
Cn1c(CN2CCC(c3nc4ccccc4s3)CC2)nc2ccccc21

>  <EXPERIMENTAL ENDPOINT>
Ki

>  <REPORTED MEASUREMENT>
> 10000 nM

$$$$
>  <TEST SMILES>
Cn1c(CN2CCC(c3cccc(C(F)(F)F)c3)CC2)nc2ccccc21

>  <EXPERIMENTAL ENDPOINT>
Ki

>  <REPORTED MEASUREMENT>
> 10000 nM

$$$$
>  <TEST SMILES>
Cn1c(CN2CCC(c3ccc(Cl)cc3)CC2)nc2ccccc21

>  <EXPERIMENTAL ENDPOINT>
Ki

>  <REPORTED MEASUREMENT>
316 nM

$$$$
>  <TEST SMILES>
Cn1c(CN2CCC(c3nsc4ccccc34)CC2)nc2ccccc21

>  <EXPERIMENTAL ENDPOINT>
Ki

>  <REPORTED MEASUREMENT>
3980 nM

$$$$
>  <TEST SMILES>
Cn1c(CN2CCC(c3ncc(C(F)(F)F)cc3Cl)CC2)nc2ccccc21

>  <EXPERIMENTAL ENDPOINT>
Ki

>  <REPORTED MEASUREMENT>
1580 nM

$$$$
>  <TEST SMILES>
Cn1c(CN2CCC(c3ccccc3C(F)(F)F)CC2)nc2ccccc21

>  <EXPERIMENTAL ENDPOINT>
Ki

>  <REPORTED MEASUREMENT>
501 nM

$$$$
